tested-target: purified full-length human recombinant aggrecanase-1 (rAgg1) (Homo sapiens, UniProt O75173)
Construct: purified full-length human recombinant aggrecanase-1
Sequence (O75173 213-837): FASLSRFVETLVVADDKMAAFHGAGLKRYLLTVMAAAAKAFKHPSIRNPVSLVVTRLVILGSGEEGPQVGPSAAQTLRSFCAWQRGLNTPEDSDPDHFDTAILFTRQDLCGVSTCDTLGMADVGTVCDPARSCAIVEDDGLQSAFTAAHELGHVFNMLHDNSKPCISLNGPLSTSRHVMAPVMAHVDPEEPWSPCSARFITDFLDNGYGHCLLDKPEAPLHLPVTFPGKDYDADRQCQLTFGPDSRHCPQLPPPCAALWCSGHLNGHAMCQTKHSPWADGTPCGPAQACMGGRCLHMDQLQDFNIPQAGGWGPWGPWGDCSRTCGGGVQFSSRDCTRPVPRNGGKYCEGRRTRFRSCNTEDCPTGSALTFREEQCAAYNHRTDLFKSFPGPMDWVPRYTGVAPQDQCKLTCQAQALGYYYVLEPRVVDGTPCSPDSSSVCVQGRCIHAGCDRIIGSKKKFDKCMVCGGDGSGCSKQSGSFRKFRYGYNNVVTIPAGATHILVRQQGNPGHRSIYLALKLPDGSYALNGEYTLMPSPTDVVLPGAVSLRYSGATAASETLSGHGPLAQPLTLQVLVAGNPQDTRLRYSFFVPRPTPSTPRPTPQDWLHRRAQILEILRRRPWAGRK
assay-text: Aggrecanase-1 FRET Assay
Format: biochemical
details: rAgg1 5 μg/ml, substrate Abz-[…]-Dap(Dnp) 25 μM, 30° C., pH 7.5; read-out: IC50
pIC50: −log10 of the molar value.
Output met for pIC50 not less than 6; output not met otherwise.

Take a look at these entries with their results.
{"compound": "COc1cc(-c2ccc(S(=O)(=O)N[C@@H](C(=O)O)C(C)C)cc2)ccc1OCc1ccc2ccccc2c1 [Example 11A]", "group": "not met"}
{"compound": "Cc1c(C(=O)Oc2ccc(-c3ccc(S(=O)(=O)N[C@@H](C(=O)O)C(C)C)cc3)cc2)oc2ccccc12", "group": "met"}
{"compound": "Cc1cc(OCc2ccc(-c3ccc(S(=O)(=O)N[C@@H](C(=O)O)C(C)C)cc3)cc2)c2ccccc2n1", "group": "met"}

Here is another compound to look at.
Challenge: API: above_or_equal(metric=pIC50, cutoff=6) for item `CC(C)[C@@H](NS(=O)(=O)c1ccc(-c2ccc(COc3cccc(C(=O)c4ccccc4)c3)cc2)cc1)C(=O)O`
Response given: met

====

tested-target: purified full-length human recombinant aggrecanase-1 (rAgg1) (Homo sapiens, UniProt O75173)
Construct: purified full-length human recombinant aggrecanase-1
assay-text: Aggrecanase-1 FRET Assay
Type: biochemical
details: rAgg1 5 μg/ml, substrate Abz-[…]-Dap(Dnp) 25 μM, 30° C., pH 7.5; read-out: IC50
property-label: pIC50
Field pIC50 (float): negative decimal logarithm of the concentration in molar.

Worked examples follow.
{"molecule": "CC(C)[C@@H](NS(=O)(=O)c1ccc(-c2ccc(O)cc2)cc1C(F)(F)F)C(=O)O [Example 12B]", "pIC50": 4.17}
{"molecule": "CC(C)[C@@H](NS(=O)(=O)c1ccc(-c2ccc(COc3ccc(C(F)(F)F)cn3)cc2)cc1)C(=O)O", "pIC50": 6.10}
{"molecule": "CC(C)[C@@H](NS(=O)(=O)c1ccc(-c2ccc(OCc3ccccc3)cc2)cc1)C(=O)O", "pIC50": 5.26}
{"molecule": "CC(C)[C@@H](NS(=O)(=O)c1ccc(-c2ccc(COc3nc4ccccc4s3)cc2)cc1)C(=O)O", "pIC50": 5.82}
{"molecule": "CC(C)[C@@H](NS(=O)(=O)c1ccc(-c2ccc(COc3ccc4ccccc4n3)cc2)cc1)C(=O)O", "pIC50": 6.22}
{"molecule": "CC(=O)NCc1ccc(-c2ccc(S(=O)(=O)N[C@@H](C(=O)O)C(C)C)cc2)cc1", "pIC50": 6.40}
{"molecule": "CC(C)[C@@H](NS(=O)(=O)c1ccc(-c2ccc(OC(=O)c3cc4ccccc4o3)cc2)cc1)C(=O)O", "pIC50": 6.46}
{"molecule": "CC(C)[C@@H](NS(=O)(=O)c1ccc(-c2ccc(O)cc2)cc1OC(F)(F)F)C(=O)O [Example 12A]", "pIC50": 3.70}

Challenge: pIC50 lookup needed for `CC(C)[C@@H](NS(=O)(=O)c1ccc(-c2ccc(OCc3ccc4ccccc4c3)cc2)cc1)C(=O)O` , thanks.
Response given: 6.10

Challenge: pIC50 lookup needed for `Cc1c(COc2ccc(-c3ccc(S(=O)(=O)N[C@@H](C(=O)O)C(C)C)cc3)cc2)oc2ccccc12` , thanks.
Response given: 6.00

Challenge: pIC50 lookup needed for `Cc1cc(COc2ccc(-c3ccc(S(=O)(=O)N[C@@H](C(=O)O)C(C)C)cc3)cc2)c2ccccc2n1` , thanks.
Response given: 6.30

Challenge: pIC50 lookup needed for `CC(C)[C@@H](NS(=O)(=O)c1ccc(-c2ccc(OCc3cc4ccccc4o3)cc2)cc1)C(=O)O` , thanks.
Response given: 5.82

Challenge: pIC50 lookup needed for `Cc1cc2ccccc2nc1OCc1ccc(-c2ccc(S(=O)(=O)N[C@@H](C(=O)O)C(C)C)cc2)cc1` , thanks.
Response given: 6.70

Challenge: pIC50 lookup needed for COc1cc(COc2ccc(-c3ccc(S(=O)(=O)N[C@@H](C(=O)O)C(C)C)cc3)cc2OC)cc(OC)c1 [Example 11B] , thanks.
Response given: 4.78
